- experimental.details: Partition coefficient (logP)
- Type: physicochemical
- experimental.conditions: octanol/water; read-out: logP
Quick reference: logP of the listed items.
Output: the number by itself.

Solved entries:
| molecule | logP |
| --- | --- |
| CC1=C(/C=C/C(C)=C/C=C/C(C)=C/C=O)C(C)(C)CCC1O (stereo not drawn) | 6.1 |
| CC(=O)/C=C(C)/C=C/C=C(C)/C=C/C1=C(C)CCCC1(C)C | 7.63 |
| CC(/C=C/C=C(C)/C=C/c1ccsc1)=C\C=O | 4.13 |
| CC1=C(/C=C/C(C)=C/C=C/C(C)=C/C=O)C(C)(C)CCC1=O | 6.63 |
| COC(C)C1=C(/C=C/C(C)=C/C=C/C(C)=C/C=O)C(C)(C)CC1 (stereo not drawn) | 6.58 |
| CC(=O)/C=C(C)/C=C/C=C(C)/C=C/C1(O)C(C)(C)CCCC1(C)O (stereo not drawn) | 4.2 |
| CC(/C=C/C=C(C)/C=C/c1ccco1)=C\C=O | 3.69 |
| CC(/C=C/C=C(C)/C=C/C12OC1(C)CCCC2(C)C)=C\C=O (stereo not drawn) | 4.91 |

Challenge: Quick check: logP of CCC(=O)/C=C(C)/C=C/C=C(C)/C=C/C1=C(C)CCCC1(C)C ?
Response given: 8.12

Challenge: Now the molecule CC(=O)/C=C(C)/C=C/C=C(C)/C=C/C12OC1(C)CCCC2(C)C (stereo not drawn)
Response given: 5.08

Challenge: Now the molecule CCC(=O)/C=C(C)/C=C/C=C(C)/C=C/c1c(C)cc(OC)c(C)c1C
Response given: 7.22

Challenge: Now the molecule CC(/C=C/C=C(C)/C=C/c1ccccc1)=C\C=O
Response given: 5.37

Challenge: Now the molecule COc1cc(C)c(/C=C/C(C)=C/C=C/C(C)=C/C=O)c(C)c1C
Response given: 6.57

====

Quick reference: logP of the listed items.
- experimental.details: Partition coefficient (logP)
- Type: physicochemical
- experimental.conditions: octanol/water; read-out: logP
Output: the number by itself.

Solved entries:
| molecule | logP |
| --- | --- |
| CC(/C=C/C=C(C)/C=C/C1C(C)CCCC1(C)C)=C\C=O (stereo not given) | 7.29 |
| CC1=CCCC(C)(C)C1/C=C/C(C)=C/C=C/C(C)=C/C=O (stereo in doubt; 19) | 7.47 |
| CC(/C=C/C=C(C)/C=C/c1cccnc1)=C\C=O | 4.69 |
| CCC(=O)/C=C(C)/C=C/C=C(C)/C=C/c1c(C)cc(O)c(C)c1C | 7.34 |

Shift focus to the following entry.
Challenge: Quick check: logP of CC(=O)C1=C(/C=C/C(C)=C/C=C/C(C)=C/C=O)C(C)(C)CC1 ?
Response given: 6.63
